The reported numbers originate from paper PMC9604483.

study target: T224A CYP3A4 (Homo sapiens, UniProt P08684, T224A)
Construct: made in house
Sequence (P08684 with tags, fused parts or gaps T224A): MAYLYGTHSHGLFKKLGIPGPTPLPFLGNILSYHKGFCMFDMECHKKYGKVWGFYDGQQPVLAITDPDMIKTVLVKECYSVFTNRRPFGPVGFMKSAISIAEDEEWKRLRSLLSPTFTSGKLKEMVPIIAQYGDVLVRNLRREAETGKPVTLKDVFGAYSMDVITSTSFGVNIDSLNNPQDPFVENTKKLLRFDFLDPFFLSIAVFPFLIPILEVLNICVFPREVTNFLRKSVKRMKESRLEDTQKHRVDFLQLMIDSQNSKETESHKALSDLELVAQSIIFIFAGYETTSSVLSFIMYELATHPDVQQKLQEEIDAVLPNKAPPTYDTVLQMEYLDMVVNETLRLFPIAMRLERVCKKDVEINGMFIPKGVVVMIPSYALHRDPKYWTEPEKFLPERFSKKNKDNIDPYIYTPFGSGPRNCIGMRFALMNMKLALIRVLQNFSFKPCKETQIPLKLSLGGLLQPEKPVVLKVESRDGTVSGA
experiment notes: Spectral (absorbance) equilibrium titrations of fluorol with CYP3A4
Assay type: binding
protocol conditions: human, ligand-free T224A mutant CYP3A4 protein in buffer, pH 7.4; ligand-free T224A CYP3A4; read-out: Kd, spectrophotometric, low-affinity site
property name: Kd at 3 μM
Entry format: amount then unit.

Entry CCCCNc1ccc2c3c(cccc13)C(=O)N(CCCC)C2=O [fluorol] : reported Kd at 3 μM = ?
6.6 µM

----------
study target: WT CYP3A4 (Homo sapiens, UniProt P08684)
Construct: made in house
Sequence (P08684 with tags, fused parts or gaps): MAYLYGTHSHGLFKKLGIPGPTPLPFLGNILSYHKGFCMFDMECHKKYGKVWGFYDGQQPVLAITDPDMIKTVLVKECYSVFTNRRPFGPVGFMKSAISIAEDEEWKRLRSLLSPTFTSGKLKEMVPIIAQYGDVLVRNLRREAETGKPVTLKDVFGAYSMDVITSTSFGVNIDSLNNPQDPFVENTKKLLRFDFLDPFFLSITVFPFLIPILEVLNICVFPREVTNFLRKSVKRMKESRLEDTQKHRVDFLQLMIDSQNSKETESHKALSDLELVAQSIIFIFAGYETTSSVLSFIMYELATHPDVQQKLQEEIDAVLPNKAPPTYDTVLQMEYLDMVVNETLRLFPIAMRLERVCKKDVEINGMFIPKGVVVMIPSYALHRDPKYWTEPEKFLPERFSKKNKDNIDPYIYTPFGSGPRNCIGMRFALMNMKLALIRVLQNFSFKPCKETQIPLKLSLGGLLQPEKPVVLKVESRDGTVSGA
experiment notes: Equilibrium fluorescence titrations of fluorol with CYP3A4
Type: binding
protocol conditions: WT CYP3A4 in presence of 20 μM PRG; one-site model; read-out: Kd, fluorometric
property name: pKd
Remember the convention: pKd equals -log10 of concentration in molar.

Requested read-out pKd, target or system WT CYP3A4 (Homo sapiens, UniProt P08684), entry "CCCCNc1ccc2c3c(cccc13)C(=O)N(CCCC)C2=O"
5.62

----------
study target: UniProt:P08684
experiment notes: Progesterone binding to CYP3A4 (authors' estimate of Kd)
protocol conditions: our estimate; read-out: Kd, high-affinity site
property name: Kd

So what's the measured Kd for this one? "CC(=O)[C@H]1CC[C@H]2[C@@H]3CCC4=CC(=O)CC[C@]4(C)[C@H]3CC[C@]12C"
5 µM

----------
study target: WT CYP3A4 (Homo sapiens, UniProt P08684)
Construct: made in house
experiment notes: Spectral (absorbance) equilibrium titrations of fluorol with CYP3A4
Assay type: binding
protocol conditions: ligand-free WT CYP3A4; 3 μM fluorol; 23 °C, 50 mM phosphate pH 7.4, 0.6 mg/mL β-cyclodextrin; read-out: Kd, spectrophotometric, high-affinity site
property name: pKd
Remember the convention: pKd equals -log10 of concentration in molar.

Entry CCCCNc1ccc2c3c(cccc13)C(=O)N(CCCC)C2=O [fluorol] : reported pKd = ?
6.30

----------
study target: CYP3A4 (Homo sapiens, UniProt P08684)
Sequence (P08684 whole entry): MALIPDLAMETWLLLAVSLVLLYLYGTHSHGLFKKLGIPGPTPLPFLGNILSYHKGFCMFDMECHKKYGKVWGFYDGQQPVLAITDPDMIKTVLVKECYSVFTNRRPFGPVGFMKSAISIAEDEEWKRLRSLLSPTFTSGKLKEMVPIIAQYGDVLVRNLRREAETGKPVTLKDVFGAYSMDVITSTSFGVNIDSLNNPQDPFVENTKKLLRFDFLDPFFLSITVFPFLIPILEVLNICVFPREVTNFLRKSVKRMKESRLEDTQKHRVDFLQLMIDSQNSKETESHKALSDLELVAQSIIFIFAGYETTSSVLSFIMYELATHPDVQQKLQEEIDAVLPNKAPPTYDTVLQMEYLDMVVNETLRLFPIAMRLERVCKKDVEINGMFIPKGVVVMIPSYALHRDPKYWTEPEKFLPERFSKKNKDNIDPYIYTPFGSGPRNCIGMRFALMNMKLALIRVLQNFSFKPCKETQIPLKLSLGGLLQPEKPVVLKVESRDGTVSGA
experiment notes: Progesterone binding to CYP3A4 (authors' estimate of Kd)
protocol conditions: human
Procedure: Equal amounts of DMSO were added to the protein solutions to avoid buffer-related changes in fluorol emission. Fluorescence changes were monitored with λex of 455 nm and a 495 nm cutoff emission filter. […] Kinetics were analyzed using the Igor Pro software (WaveMetrics, Oswego, OR, USA).
property name: Kd

API: value(readout=Kd, system=CYP3A4 (Homo sapiens, UniProt P08684)) for record CC(=O)[C@H]1CC[C@H]2[C@@H]3CCC4=CC(=O)CC[C@]4(C)[C@H]3CC[C@]12C [progesterone]
45 µM

----------
study target: T224A CYP3A4 (Homo sapiens, UniProt P08684, T224A)
Construct: made in house
experiment notes: Equilibrium fluorescence titrations of fluorol with CYP3A4
Format: binding
protocol conditions: ligand-free T224A CYP3A4; only a low-affinity site detected; read-out: Kd, fluorometric
property name: Kd
Reply with the number and its unit after it.

Please report the recorded Kd for "CCCCNc1ccc2c3c(cccc13)C(=O)N(CCCC)C2=O" .
2 µM

----------
study target: T224A CYP3A4 (Homo sapiens, UniProt P08684, T224A)
Construct: made in house
experiment notes: Spectral (absorbance) equilibrium titrations of fluorol with CYP3A4
Assay type: binding
protocol conditions: ligand-free T224A CYP3A4; read-out: Kd, spectrophotometric, high-affinity site
property name: pKd
As a rule, pKd stands for the negative log10 of the concentration, concentration in M.

Sample "CCCCNc1ccc2c3c(cccc13)C(=O)N(CCCC)C2=O" — what was its pKd?
6.17

----------
study target: WT CYP3A4 (Homo sapiens, UniProt P08684)
Construct: made in house
experiment notes: Equilibrium fluorescence titrations of fluorol with CYP3A4
Assay type: binding
protocol conditions: ligand-free WT CYP3A4; 1 μM fluorol; 23 °C, pH 7.4; read-out: Kd, fluorometric, high-affinity site
property name: Kd (nM)
Just the number please, in nM, no unit attached.

Please give the measured Kd for this compound: "CCCCNc1ccc2c3c(cccc13)C(=O)N(CCCC)C2=O"
150
